Biological target: HLA-DR (DRA1*01:01 / DRB1*12:02), soluble knob-into-hole Fc heterodimer (human)
Experiment: ELISA
pKi: −log10 of the molar value.
measured-parameter: pKi

> print(dat)
                                     binder  measured.parameter  measured.value
1  KPVSKMRMATPLLMQALPM [human CLIP peptide, unlabelled competitor]                 pKi            8.43
